Would you mind telling me the reported activity at 10 µM of each entry?
biological target: AR1-651 (Homo sapiens); construct: FLAG; expressed in transfected cells; host or cells: 22RV1; test: MMTV-luc dual luciferase reporter assay, AR1-651-induced activity in 22RV1 cells; type: cell-based; conditions: 22Rv1, read-out: MMTV-luc Activity (%), AR1-651-induced, 22RV1, AR1-651 +, compound 10 µM, 12 h, mean ± s.d., n=3;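 further: luminometric read-out of firefly luciferase signal normalized to Renilla luciferase signal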
Sequence (P10275 1-651): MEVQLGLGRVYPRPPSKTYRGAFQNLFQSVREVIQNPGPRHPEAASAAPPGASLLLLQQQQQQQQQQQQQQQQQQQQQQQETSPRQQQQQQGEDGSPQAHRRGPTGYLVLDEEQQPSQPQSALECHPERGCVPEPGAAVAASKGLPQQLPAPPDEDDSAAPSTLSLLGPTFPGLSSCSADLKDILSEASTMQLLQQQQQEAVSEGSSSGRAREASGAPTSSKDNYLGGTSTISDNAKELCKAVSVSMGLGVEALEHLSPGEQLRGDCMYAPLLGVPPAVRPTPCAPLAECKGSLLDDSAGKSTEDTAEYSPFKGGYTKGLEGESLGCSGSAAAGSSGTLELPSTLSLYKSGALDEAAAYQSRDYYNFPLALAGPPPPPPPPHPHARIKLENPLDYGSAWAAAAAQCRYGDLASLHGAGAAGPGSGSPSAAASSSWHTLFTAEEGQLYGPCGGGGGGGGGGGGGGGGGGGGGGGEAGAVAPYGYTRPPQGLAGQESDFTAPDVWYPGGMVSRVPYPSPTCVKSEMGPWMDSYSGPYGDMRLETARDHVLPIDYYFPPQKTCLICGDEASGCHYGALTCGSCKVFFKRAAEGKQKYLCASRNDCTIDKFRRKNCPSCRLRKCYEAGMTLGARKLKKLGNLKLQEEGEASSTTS
Give bare numbers, in %.

O=C(O)C1=C[C@@H](O)[C@@H](O)[C@H](O)C1 = 104

Lab note: each compound below needs its activity at 10 µM filled in.
1. C=C1CC[C@@H]2[C@](C)(CO)[C@H](O)CC[C@@]2(C)[C@@H]1C/C=C1/C(=O)OC[C@H]1O [Andrographolide]
2. O=c1c(-c2ccc(O)cc2)coc2c([C@@H]3O[C@H](CO)[C@@H](O)[C@H](O)[C@H]3O)c(O)ccc12
3. O=c1cc(-c2ccc(O)c(O)c2)oc2cc(O)cc(O)c12

Marked response:
1. 59.5
2. 80.1
3. 82.7

Lab note: each compound below needs its activity at 10 µM filled in.
1. CCNC(=O)CC[C@H](N)C(=O)O
2. O=C(O)[C@H]1O[C@@H](Oc2cc3oc(-c4ccccc4)cc(=O)c3c(O)c2O)[C@H](O)[C@@H](O)[C@@H]1O
3. CC1=CC(=O)c2c(O)cccc2C1=O

Marked response:
1. 61.9
2. 113
3. 28.8

Exam item: What activity at 10 µM value was documented for this compound, C[C@@]12C[C@@]3(O)O[C@@H](O1)[C@]1(COC(=O)c4ccccc4)[C@H]3C[C@@]12O[C@@H]1O[C@H](CO)[C@@H](O)[C@H](O)[C@H]1O ?
Marked response: 88.5

* * *

assay: in vivo; settings: Sprague-Dawley, rat, in vivo, po, 5 mg/kg
testReadout: Tmax (min)
Answers are plain numbers, in min.

Exam item: What Tmax value was documented for this compound, C=C1[C@@H](O)[C@]2(O)OC[C@]34[C@H]2[C@@]2(C)[C@H](O)C(=O)C=C(C)[C@@H]2C[C@H]3OC(=O)C[C@@H]14 [AIL, Ailanthone] ?
Marked response: 23.3

* * *

experiment: in vivo; settings: Sprague-Dawley, rat, in vivo, po, 5 mg/kg
testReadout: AUC(0-inf)

Exam item: What AUC(0-inf) value was documented for this compound, C=C1[C@@H](O)[C@]2(O)OC[C@]34[C@H]2[C@@]2(C)[C@H](O)C(=O)C=C(C)[C@@H]2C[C@H]3OC(=O)C[C@@H]14 ?
Marked response: 1320 ng·h/mL

* * *

Experiment: Pharmacokinetic study of ailanthone in Sprague-Dawley rats
Conditions: plasma, iv, rat, i.v. 1 mg kg^−1, n=6, mean±s.d.
Experimental: Pharmacokinetic studies in vivo[37] and CYP-associated metabolic studies in vitro[56] were performed using the method reported previously in our laboratory. […] The statistical analysis was performed by SPSS 22.0 software. The differences between control group and experimental groups were determined by one-way analysis of variance. […] Data were expressed as mean and s.d., and P<0.05 was considered significant. […]
testReadout: half-life (h)
Answers are plain numbers, in h.

Exam item: What half-life value was documented for this compound, C=C1[C@@H](O)[C@]2(O)OC[C@]34[C@H]2[C@@]2(C)[C@H](O)C(=O)C=C(C)[C@@H]2C[C@H]3OC(=O)C[C@@H]14 [AIL, Ailanthone] ?
Marked response: 1.89

# credit: paper PMC5159881
